Source listed as PubChem BioAssay (NCI).

Protocol details: NCI Yeast Anticancer Drug Screen. Data for the rad18 strain (AID 177)
Study conditions: S. cerevisiae rad18 mutant growth inhibition; at 3.7 µM; hits give high values
The panel holds about 79,000 compounds, 15% with a hit somewhere; the sample as a whole holds those more often.
Tick YES if growth inhibition is 10% or greater. Tick NO if growth inhibition is less than 10%.

### Prompt Quick check, growth inhibition >= 10%? CCN(CC)CC(=O)c1ccc2cc(Cl)c3ccccc3c2c1
### Response YES

### Prompt Quick check, growth inhibition >= 10%? CCCCCCCCCCCCOCCOCCOCC(N)=O
### Response NO

### Prompt Quick check, growth inhibition >= 10%? CC(CN(C)C)C(=O)/C=C/c1ccc(Cl)c(Cl)c1 (centres undefined)
### Response YES

### Prompt Quick check, growth inhibition >= 10%? COc1ccc(C(C)c2cc3c(cc2OCC(C)=O)OCO3)cc1 (centres undefined)
### Response NO

### Prompt Quick check, growth inhibition >= 10%? O=c1c2ccccc2nc(-c2cccc([N+](=O)[O-])c2)n1O
### Response YES

### Prompt Quick check, growth inhibition >= 10%? COC(=O)C1CCCCC1C(=O)Nc1ccccc1 (centres undefined)
### Response NO

### Prompt Quick check, growth inhibition >= 10%? COC1/C=C\C=C(/C)C(=O)NC2=CC(=O)C(=O)C(=C2O)CC(C)CC(OC)C(O)C(C)/C=C(\C)C1OC(N)=O (centres undefined)
### Response NO

### Prompt Quick check, growth inhibition >= 10%? CSC(=S)N/N=C/c1ccccc1
### Response YES
